The reported measurements were obtained from patent US5187188A.

Tested on: human platelets
Test: In vitro inhibition of ADP-induced human platelet aggregation in platelet-rich plasma (aggregometer method of Born)
Assay type: cell-based
Settings: human PRP, 0.5 mcg/mL ADP, about three minutes preincubation
Experimental: The aggregometer method of Born, G. V. R., J. Physiol., (London), 162, 67-68, (1962) as modified by Mustard, J. F., et al., J. Lab. […] Platelet rich plasma (PRP) was separated by centrifugation for 10 minutes at 1000 rpm (140×g) from citrated (3.8%) human blood. […] Dose response curves were obtained and Inhibitor Concentration (IC50) values calculated. […]
Observable: log10(IC50) (log10 of the value in µg/mL)
Would you kindly interpret these values as log10 of IC50 expressed in µg/mL?

Compound | log10(IC50)
CC(C)OC(=O)C(Cc1cccc(OCC(=O)O)c1)c1nc(-c2ccccc2)c(-c2ccccc2)o1 (centres unmarked) [Compound 10d] | -0.22
COC(=O)COc1cccc(CC(C(=O)OC(C)C)c2nc(-c3ccccc3)c(-c3ccccc3)o2)c1 (centres unmarked) [Compound 9f] | 0.54
COC(=O)COc1cccc(C=C(C(=O)OC(C)C)c2nc(-c3ccccc3)c(-c3ccccc3)o2)c1 [Compound 7f] | 0.70
CNC(=O)C(=Cc1cccc(OCC(=O)OC)c1)c1nc(-c2ccccc2)c(-c2ccccc2)o1 [Compound 7h] | 0.11
COC(=O)COc1cccc(/C=C(\C#N)c2nc(-c3ccccc3)c(-c3ccccc3)o2)c1 [Compound 16] | 0.90

Q. Quick one: log10(IC50) of CCOC(=O)/C(=C\c1cccc(OCC(=O)OC)c1)c1nc(-c2ccccc2)c(-c2ccccc2)o1 [Compound 7b] ?
A. 1.00
